# Tested on: SN12C renal
# measurement_notes: NCI-60 one-dose screen, 48 h
# assay_conditions: 10 µM unless noted
Compounds without any hit were thinned out: in the full panel of roughly 83,000, 20% have a hit. Activity calls are given as the source filed them. Rule for the calls: active = growth percent below 10; inactive = the rest.
Labels: t = active, f = inactive

CC1(O)CCC2CC3OC3(C)CCC3OC3(C)C(O)CC1C2(C)C (centres undefined); f
C=CCCCOC1[C@H](OCc2ccccc2)C(OCc2ccccc2)C(OC)O[C@@H]1CNC(=O)c1cccc(I)c1 (some centres undefined); f
COc1cccc(Nc2ncnn3ccc(CN4CC[C@@H](N)[C@H](O)C4)c23)c1; f
Clc1ccc(/C=C/c2cc(N3CCOCC3)c3cc(Cl)c(Cl)cc3n2)cc1; f
CCCCCCCCCNCCCCCCCCC; f
CN1CCN(Cc2ccc(NC(=O)c3[nH]ncc3Nc3ncnc4sc5c(c34)CCCC5)cc2)CC1; t
CCCCOc1nc2cc(Cl)ccc2cc1/C=C/c1cc(/C=C/c2cc3ccc(Cl)cc3nc2OCCCC)n(-c2ccccc2)n1; f
Cc1cc(O)cc(-c2c(-c3ccnc(-c4cccnc4)c3)cnn2C)c1; f
COc1ccc(C2OC(c3cc(-c4cc5ccccc5o4)nn3-c3ccccc3)=NN2C(C)=O)cc1 (centres undefined); f
Cc1ccc(-c2cc3c(SCC(=O)Nc4cc(C(F)(F)F)ccc4Cl)nccn3n2)cc1; f
CCc1nc2cc(/C=C/C(=O)NO)ccc2c(=O)n1CCc1ccc(F)cc1; t
COc1ccc(S(=O)(=O)N(C(C)=O)c2ccccc2/C=C/c2cc[n+]([O-])cc2)cc1; f
Cc1[nH]n(C(N)=S)c(=O)c1N=Nc1ccc(S(=O)(=O)Nc2ccncn2)cc1; f
COc1cc(Nc2ncc3c(n2)-c2ccc(Cl)cc2C(c2c(F)cccc2OC)=NC3)ccc1C(=O)O; f
Cc1ccc(NC(=O)c2ccc(CN3CC[C@H](N(C)C)C3)c(C(F)(F)F)c2)cc1Nc1nccc(-c2cncnc2)n1; t
C=CC(=O)Nc1cc2c(Nc3ccc(F)c(Cl)c3)ncnc2cc1C#CC(C)(C)N1CCN(C)CC1; t
C=CC[n+]1c(/C=C2\Sc3ccccc3N2C)sc(-c2ccccc2)c1-c1ccccc1; t
C[C@@H](NC(=O)c1ncnc(N)c1Cl)c1ncc(C(=O)Nc2cc(C(F)(F)F)c(Cl)cn2)s1; f
Cc1cc2c(-c3nc4ccccn4c3NC3CCCCC3)c(O)c(O)cc2c(O)c1-c1c(C)cc2c(-c3nc4ccccn4c3NC3CCCCC3)c(O)c(O)cc2c1O; f
CNS(=O)(=O)Nc1nccc(Cc2c(C)c3ccc(Oc4ncccn4)cc3oc2=O)c1F; f
O=c1nc2c(-c3nc4ccccc4s3)n[nH]n2c2sc3c(c12)CCCC3; f
O=C(Nc1ccc(N=Nc2ccccc2)cc1)c1cccc2ccccc12; f
COc1cc2c(Oc3ccc4[nH]c(C)cc4c3F)ncnc2cc1OCCCN1CCCC1; f
NC1=Nc2cc(OCCCN3Cc4ccccc4C3)c(OCC3CC3)cc2C12CCCC2; f
Cc1ccc(NC(=O)NC(=O)CSc2nc3ccccc3nc2C)cc1; f
NC1=Nc2ccccc2N(O)N1; f
CCOC(=O)C1=C(C)NC(=O)NC1c1cc(=O)oc2ccc(C)cc12 (centres undefined); f
N#Cc1c(-c2ccc(C(F)(F)F)cc2)cc(NCC2CCS(=O)(=O)CC2)n2c1nc1ccccc12; f
CS(=O)(=O)N1CCN(Cc2cc3nc(-c4cccc5[nH]ncc45)nc(N4CCOCC4)c3s2)CC1; f
